- run_description: Total clearance in Sprague-Dawley rat at 1 mg/kg, iv
- Assay type: ADME, organism-based
- Design: dose 1 mg/kg, route intravenous
- cond: in vivo
recorded_endpoint: clearance

{"smiles_notation": "Cn1c(N2CCO[C@@H](c3ccc(F)cc3)C2)nc(-c2ccncn2)cc1=O", "endpoint_result": "48.3 mL/min/kg"}

====

- System: Liver microsome
- run_description: Intrinsic clearance in human liver microsomes
- Type: ADME

{"smiles_notation": "Cn1c(N2CCO[C@@H](c3ccc(C#N)cc3F)C2)nc(-c2ccncn2)cc1=O", "Intrinsic clearance, µL/min/mg": 30}
{"smiles_notation": "COc1cc(F)ccc1[C@H]1CN(c2nc(-c3ccncn3)cc(=O)n2C)CCO1", "Intrinsic clearance, µL/min/mg": 180}
{"smiles_notation": "COc1cccc(OC)c1[C@H]1CN(c2nc(-c3ccncn3)cc(=O)n2C)CCO1", "Intrinsic clearance, µL/min/mg": 200}
{"smiles_notation": "COc1ccc([C@H]2CN(c3nc(-c4ccncn4)cc(=O)n3C)CCO2)cc1", "Intrinsic clearance, µL/min/mg": 110}
{"smiles_notation": "Cn1c(N2CCO[C@@H](c3ccc(F)cc3)C2)nc(-c2ccncn2)cc1=O", "Intrinsic clearance, µL/min/mg": 60}
